The measured values listed here are drawn from ChEMBL document CHEMBL1132233.

System: Bacillus subtilis
test.method.notes: Minimum inhibitory concentration against Bacillus subtilis
Format: functional
Recorded measurements of MIC, one per entry
test.readout: MIC (µM)

INSERT INTO measurements (smiles_repr, reported_result) VALUES
  ('CCc1cc(Nc2cc(=O)n(CCCOC)c(=O)[nH]2)ccc1C', 1.5),
  ('CCc1cc(Nc2cc(=O)n(CCCO)c(=O)[nH]2)ccc1C', 3),
  ('CCn1c(=O)cc(Nc2ccc3c(c2)CCC3)[nH]c1=O', 3),
  ('C=CCn1c(=O)cc(Nc2ccc3c(c2)CCC3)[nH]c1=O', 3),
  ('C=CCn1c(=O)cc(Nc2ccc(C)c(CC)c2)[nH]c1=O', 1.5),
  ('CCCn1c(=O)cc(Nc2ccc3c(c2)CCC3)[nH]c1=O', 11);
